Molecular target: T1, recombinant RSV protein G, G(B): residues 66-292 of strain 18537 (human respiratory syncytial virus …, UniProt P20896 66-292)
T1 construct: also called soluble recombinant G protein; recombinant protein G
T1 sequence: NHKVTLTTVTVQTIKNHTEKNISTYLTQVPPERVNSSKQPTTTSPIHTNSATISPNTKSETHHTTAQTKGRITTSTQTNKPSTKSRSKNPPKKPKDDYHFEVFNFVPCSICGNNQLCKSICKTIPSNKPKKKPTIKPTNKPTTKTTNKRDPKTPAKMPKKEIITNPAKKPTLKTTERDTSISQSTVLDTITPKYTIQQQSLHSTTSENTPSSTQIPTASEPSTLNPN
Assay: SPR Biacore 3000, Fab over amine-coupled recombinant protein G
Metric name: koff
Don't forget the unit after the number, please.

Please fill in: koff reported for Fab fragment of antibody 859 (Fab, also called Fab clone 859) VH: QVQLVESGGGVVQPGRSLRLSCAVSGSSFSKYGIHWVRQAPGKGLEWVAVISYDGSKKYFTDSVKGRFTIARDNSQNTVFLQMNSLRAEDTAVYYCATGGGVNVTSWSDVEHSSSLGYWGLGTLVTVSS light: DIQMTQSPSSLSASVGDRVTITCRASQGIRNYLAWYQQKPGKVPKLLVFAASTLQSGVPSRFSGSGSGTDFTLTISSLQPEDVATYYCQRYNSAPLTFGGGTKVEIKRTVAAPSVFIFPPSDEQLKSGTASVVCLLNNFYPREAKVQWKVDNALQSGNSQESVTEQDSKDSTYSLSSTLTLSKADYEKHKVYACEVTHQGLSSPVTKSFNRGEC = 4.63e-05 s⁻¹
